The origin of these recorded values is patent US20260008815A1.

Biological target: Recombinant Human FGFR2 alpha (IIIc) Fc Chimera Protein (Homo sapiens)
Construct: Fc (chimera); purchased R&D systems 712-FR-050
Sequence (P21802 with tags, fused parts or gaps limits assumed): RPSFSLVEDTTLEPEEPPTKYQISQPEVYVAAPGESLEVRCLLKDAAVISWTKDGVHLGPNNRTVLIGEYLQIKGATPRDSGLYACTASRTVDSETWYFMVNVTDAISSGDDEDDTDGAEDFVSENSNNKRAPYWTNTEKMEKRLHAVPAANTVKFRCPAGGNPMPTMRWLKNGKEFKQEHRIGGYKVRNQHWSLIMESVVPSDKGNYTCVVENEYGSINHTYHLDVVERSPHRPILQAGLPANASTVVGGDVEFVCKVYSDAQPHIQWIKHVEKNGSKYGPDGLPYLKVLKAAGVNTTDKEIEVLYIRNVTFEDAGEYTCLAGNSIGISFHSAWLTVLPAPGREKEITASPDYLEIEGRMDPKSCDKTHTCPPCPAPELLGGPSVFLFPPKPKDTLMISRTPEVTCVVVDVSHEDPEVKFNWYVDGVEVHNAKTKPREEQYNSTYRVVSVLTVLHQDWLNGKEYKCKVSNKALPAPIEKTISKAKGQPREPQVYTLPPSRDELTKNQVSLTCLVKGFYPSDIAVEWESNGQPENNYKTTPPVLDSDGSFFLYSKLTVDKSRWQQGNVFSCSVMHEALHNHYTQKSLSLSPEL
Assay: ELISA binding affinity of enzymatically synthesized peptide to FGFR
Settings: ELISA luminescence signal at 10 nmol/L peptide, SEQ ID NO: 47 at 10 nmol/L standardized to 1; enzyme synthesis product
Description: The binding affinity of the peptide to FGFR was evaluated using an ELISA method. The binding affinity of the enzymatically synthesized peptide to FGFR was measured by evaluating the amount of the peptide bound to FGFR by ELISA. […]
Bridge positions count the residues as written; N and C are the ends. Ends that are not written are not given here. COCH2 = acetyl group that carries the bridge
MEASURE: Evaluation result of binding affinity to FGFR

114 (YCTDNYIDDIQFWYLFLYK(COCH2)H; thioether 2-19 (inferred)) [compound 114] : A (0.7 or more)
179 (YCERNYLDPEQYQYFIYFK(COCH2)Y; thioether 2-19 (inferred)) [compound 179] : A (0.7 or more)
351 (YCEENYMDPEQYQYFIYFK(COCH2)Y; thioether 2-19) [compound 351] : A (0.7 or more)
